Where do these numbers come from? They come from patent US20220402862A1.

experiment: Dynamic light scattering of LNPs: Z-average diameter, number average diameter, PDI; format: physicochemical; settings: LNP, sg:mRNA 1:1, N/P about 6, 50/9/38/3; Table 2, Experiments 2-20
Short version: PDI at least 0.04 is yes (1), less is no (0).

INSERT INTO results (molecule, category) VALUES
  ('CCCCCCCCOC(CCC(=O)OCC(COC(=O)CCCCCCCCCCC(=O)OCCCCCCC)COC(=O)OCCCN(CC)CC)OCCCCCCCC (stereo not drawn)', 'no (0)'),
  ('CCCCC/C=C\C/C=C\CCCCCCCC(=O)OCC(COC(=O)CCC(OCCCCCCCC)OCCCCCCCC)COC(=O)OC1CCN(CC)CC1 (stereo not drawn)', 'no (0)'),
  ('CCCCCCCCCCOC(=O)CCCCCCCC(=O)OCC(COC(=O)CCCC(=O)OC(CCCCCCCC)CCCCCCCC)COC(=O)CCCN(C)C (stereo not drawn)', 'no (0)'),
  ('CCCCC/C=C\C/C=C\CCCCCCCC(=O)OCC(COC(=O)CCC(OCCCCCCCC)OCCCCCCCC)COC(=O)NC1CCN(CC)CC1 (stereo not drawn)', 'yes (1)'),
  ('CCCCC/C=C\C/C=C\CCCCCCCC(=O)OCC(COC(=O)CCC(OCCCCCCCC)OCCCCCCCC)COC(=O)OCC1(C)CCCN(CC)C1 (stereo not drawn)', 'no (0)'),
  ('CCCCC/C=C\C/C=C\CCCCCCCC(=O)OCC(COC(=O)CCC(OCCCCCCCC)OCCCCCCCC)COC(=O)CCN(CC)CC (stereo not drawn)', 'yes (1)'),
  ('CCCCC/C=C\C/C=C\CCCCCCCC(=O)OCC(COC(=O)CCCC(=O)OC(CCCCCCCC)CCCCCCCC)COC(=O)OCCCN(CC)CC (stereo not drawn)', 'no (0)'),
  ('CCCCC/C=C\C/C=C\CCCCCCCC(=O)OCC(COC(=O)CCC(OCCCCCCCC)OCCCCCCCC)OC(=O)OCCCN(CC)CC (stereo not drawn)', 'no (0)');

----------
experiment: Dynamic light scattering of LNPs: Z-average diameter, number average diameter, PDI; type: physicochemical; conditions: LNP, sg:mRNA 1:1, N/P about 6, 50/9/38/3; Table 2, Experiments 2-20
Below: a set of entries, each annotated with reported Number mean (nm).
Readout label: Number mean (nm)

INSERT INTO results (compound, output_unit, value) VALUES
  ('CCCCCCCCCCOC(=O)CCCCCCCC(=O)OCC(COC(=O)CCCCCC(=O)OC(CCCCCCCC)CCCCCCCC)COC(=O)CCCN(C)C (centres unmarked)', 'nm', 94.01),
  ('CCCCC/C=C\C/C=C\CCCCCCCC(=O)OCC(COC(=O)CCC(OCCCCCCCC)OCCCCCCCC)COC(=O)NCCN(CC)CC (centres unmarked)', 'nm', 73.4),
  ('CCCCCCCCCCOC(=O)CCCCCCCC(=O)OCC(COC(=O)CCCC(=O)OC(CCCCCCCC)CCCCCCCC)COC(=O)NCCN(CC)CC (centres unmarked)', 'nm', 99.51),
  ('CCCCCCCCCCOC(=O)CCCCCCCC(=O)OCC(COC(=O)CCCCCC(=O)OC(CCCCCCCC)CCCCCCCC)COC(=O)OCCCN(CC)CC (centres unmarked)', 'nm', 80.2),
  ('CCCCC/C=C\C/C=C\CCCCCCCC(=O)OCC(C)(COC(=O)CCC(OCCCCCCCC)OCCCCCCCC)COC(=O)OCCCN(CC)CC (centres unmarked)', 'nm', 65.94),
  ('CCCCCC/C=C\COC(=O)CCCCCCCCCCCC(=O)OCC(COC(=O)CCC(OCCCCCCCC)OCCCCCCCC)COC(=O)OCCCN(CC)CC (centres unmarked)', 'nm', 66.78),
  ('CCCCC/C=C\C/C=C\CCCCCCCC(=O)OCC(COC(=O)CCC(OCCCCCCCC)OCCCCCCCC)COC(=O)OCC1(C)CCCN(CC)C1 (centres unmarked)', 'nm', 69.4),
  ('CCCCCC/C=C\COC(=O)CCCCCCCC(=O)OCC(COC(=O)CCC(OCCCCCCCCC)OCCCCCCCCC)COC(=O)OCCCN(CC)CC (centres unmarked)', 'nm', 74.41),
  ('CCCCC/C=C\C/C=C\CCCCCCCC(=O)OCC(COCCN(CC)CC)COC(=O)CCC(OCCCCCCCC)OCCCCCCCC (centres unmarked)', 'nm', 57),
  ('CCCCC/C=C\C/C=C\CCCCCCCC(=O)OCC(COC(=O)CCCC(CCCCCCC)CCCCCCC)COC(=O)OCCCN(CC)CC (centres unmarked)', 'nm', 56.56),
  ('CCCCC/C=C\C/C=C\CCCCCCCC(=O)OCC(COC(=O)CCC(OCCCCCCCC)OCCCCCCCC)COC(=O)NC(C)CN(CC)CC (centres unmarked)', 'nm', 64.78),
  ('CCCCCC/C=C\COC(=O)CCCC(=O)OCC(COC(=O)CCC(OCCCCCCCC)OCCCCCCCC)COC(=O)OCCCN(CC)CC (centres unmarked)', 'nm', 81.44),
  ('CCCCC/C=C\C/C=C\CCCCCCCC(=O)OCC(COC(=O)CCC(OCCCCCCCC)OCCCCCCCC)COC(=O)OCC1CCCN(C)C1 (centres unmarked)', 'nm', 60.35),
  ('CCCCC/C=C\C/C=C\CCCCCCCC(=O)OCC(COC(=O)CCC(OCCCCCCCC)OCCCCCCCC)COC(=O)NC(C)CN(C)C (centres unmarked)', 'nm', 69.23),
  ('CCCCCCCCCC(CC)OC(=O)CCCCCCCC(=O)OCC(COC(=O)CCC(OCCCCCCCC)OCCCCCCCC)COC(=O)OCCCN(CC)CC (centres unmarked)', 'nm', 74.5),
  ('CCCCCCCCCCOC(=O)CCCCCCCC(=O)OCC(COC(=O)CCCC(=O)OC(CCCCCCCC)CCCCCCCC)COC(=O)CCCN(C)C (centres unmarked)', 'nm', 89.4),
  ('CCCCCCCCCCOC(=O)CCCCCCCC(=O)OCC(COC(=O)CCC(OCCCCCCCC)OCCCCCCCC)COC(=O)OCC1CCCN(CC)C1 (centres unmarked)', 'nm', 75.22),
  ('CCCCC/C=C\C/C=C\CCCCCCCC(=O)OCC(COC(=O)CCCCCC(=O)OC(CCCCCCCC)CCCCCCCC)COC(=O)OCCCN(CC)CC (centres unmarked)', 'nm', 69.25),
  ('CCCCCCCCCCCCCCOC(=O)CCCCCCCC(=O)OCC(COC(=O)CCC(OCCCCCCCC)OCCCCCCCC)COC(=O)OCCCN(CC)CC (centres unmarked)', 'nm', 78.73),
  ('CCCCC/C=C\C/C=C\CCCCCCCC(=O)OCC(COC(=O)CCC(OCCCCCCCC)OCCCCCCCC)COC(=O)OCCCN1CCCCCC1 (centres unmarked)', 'nm', 56.62);
